- System: Saccharomyces cerevisiae;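 further: PSI is a weighted mean of sequencing reads over stability bins, variants kept only with over 10 reads, mCherry proximal and sfGFP distal, peptide attached via GGGS linker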
- PROCEDURE SUMMARY: protein stability index of tFT-peptide fusion (C-terminal peptide) (PSI (0-1 scale)); higher = more stable (slower turnover)
- TEST PARAMETERS: genetic background: wild type; temperature: 30 C
Please go through the items and note down their protein stability index.
# respond with the number and nothing more

Record summary for "KARMEKKRKIKL" : reported protein stability index = 0.728

Record summary for "SFGLGGSFFWVG" : reported protein stability index = 0.7

Record summary for "TGVRSAEAKRKQ" : reported protein stability index = 0.579

Record summary for "LKPPEDPCASRV" : reported protein stability index = 0.677

Record summary for "VRCGGPGRAGKG" : reported protein stability index = 0.63

Record summary for "FSLLCGPGLRGF" : reported protein stability index = 0.72

Record summary for "RSCAHATLAYVP" : reported protein stability index = 0.771

Record summary for "PLRFLLPLLLPF" : reported protein stability index = 0.582

Record summary for "GGGARFGLGGRM" : reported protein stability index = 0.675

Record summary for "YPYRKRTIGVRT" : reported protein stability index = 0.595

Record summary for "GCSLWAVRTWGL" : reported protein stability index = 0.699

Record summary for "GLCGVVVGCWVR" : reported protein stability index = 0.397

Record summary for "NQPSHPRPHAER" : reported protein stability index = 0.666

Record summary for "DSSYVYHFRCVS" : reported protein stability index = 0.621

Record summary for "RFWIVVRRQTRT" : reported protein stability index = 0.645

Record summary for "LPPPSLPPLPLF" : reported protein stability index = 0.728

Record summary for "PVFNDDTIIRNP" : reported protein stability index = 0.761

Record summary for "WGVGVGGRMRPH" : reported protein stability index = 0.707

Record summary for "STELQKMPQIEY" : reported protein stability index = 0.722

Record summary for "LVWGQPWKMPVV" : reported protein stability index = 0.699

Record summary for "GRVRGVEGIGKG" : reported protein stability index = 0.663

Record summary for "EQSWEVWGRGQG" : reported protein stability index = 0.744

Record summary for "SPLRHLPGPSFP" : reported protein stability index = 0.696

Record summary for "PLPPPTSPPSPP" : reported protein stability index = 0.749

Record summary for "SPSPLPTTPPTC" : reported protein stability index = 0.641

Record summary for "QVASVTSLLPYS" : reported protein stability index = 0.75

Record summary for "DAGRLLIVSVDS" : reported protein stability index = 0.662

Record summary for "LCSLSIFVLFSC" : reported protein stability index = 0.25

Record summary for "LHPSPPSPLPPP" : reported protein stability index = 0.723

Record summary for "GVAGRRGQRDVR" : reported protein stability index = 0.746

Record summary for "SPPLPACSPPLA" : reported protein stability index = 0.715

Record summary for "ILSGIGNGSGSE" : reported protein stability index = 0.72

Record summary for "FMCFVLPVFVLV" : reported protein stability index = 0.306

Record summary for "GLSVVFRIPPGS" : reported protein stability index = 0.735

Record summary for "TPRYALVRHHPR" : reported protein stability index = 0.695

Record summary for "LCLRCQCIGTLS" : reported protein stability index = 0.489

Record summary for "GSLEGGGSGGGW" : reported protein stability index = 0.674

Record summary for "GVRAVRSCRMQR" : reported protein stability index = 0.702

Record summary for "SRPRLSDLFPPP" : reported protein stability index = 0.706

Record summary for "SAVRHPRPGRPG" : reported protein stability index = 0.694

Record summary for "GLGLASSGWGRG" : reported protein stability index = 0.733

Record summary for "PPPRSSLRLPSA" : reported protein stability index = 0.652

Record summary for "VYCTFLFAYTLP" : reported protein stability index = 0.483

Record summary for "VTREEALICSQP" : reported protein stability index = 0.811

Record summary for "PHRLSRFILRLL" : reported protein stability index = 0.194

Record summary for "PNFSLPSLPHFP" : reported protein stability index = 0.747

Record summary for "WFFLFGFVFFFR" : reported protein stability index = 0.411

Record summary for "RGWLSAWDENGK" : reported protein stability index = 0.704

Record summary for "GIRKRIEKKKIK" : reported protein stability index = 0.7

Record summary for "FLFCSYHSPLSF" : reported protein stability index = 0.7

Record summary for "DWYSGVTYGPCS" : reported protein stability index = 0.78

Record summary for "LRRPVDPSHIPI" : reported protein stability index = 0.663

Record summary for "GGGWGRAYSWWV" : reported protein stability index = 0.705

Record summary for "APPPPGPLPPPS" : reported protein stability index = 0.698

Record summary for "REWLGCYVFGVR" : reported protein stability index = 0.677

Record summary for "GRNMQVTVQNRG" : reported protein stability index = 0.735

Record summary for "SLPGVRVPRVGR" : reported protein stability index = 0.715

Record summary for "GGLGVYQWVDSV" : reported protein stability index = 0.663

Record summary for "QKEETGGLGGGK" : reported protein stability index = 0.661

Record summary for "GVLIDVFGRSAV" : reported protein stability index = 0.696

Record summary for "NKRKTKNKERRA" : reported protein stability index = 0.65

Record summary for "PFESSRRLAPSP" : reported protein stability index = 0.722

Record summary for "SRGWCGRVVWGK" : reported protein stability index = 0.729

Record summary for "RGASKYDGDSRR" : reported protein stability index = 0.668

Record summary for "LCPSLSSPTSAT" : reported protein stability index = 0.659

Record summary for "LLPPSLLSPPPF" : reported protein stability index = 0.696

Record summary for "SLGRYVDCLLGC" : reported protein stability index = 0.646

Record summary for "HPPPFRLPPAPP" : reported protein stability index = 0.639

Record summary for "PPPPSPRLSHSP" : reported protein stability index = 0.646

Record summary for "SPPFLPVPASSL" : reported protein stability index = 0.709

Record summary for "NITIEGVELERV" : reported protein stability index = 0.715

Record summary for "PSWLLFGVHGGW" : reported protein stability index = 0.71

Record summary for "DHIALIWGCSNF" : reported protein stability index = 0.703

Record summary for "ERGGLGLSRCVS" : reported protein stability index = 0.663

Record summary for "GGYYIFGLCDLL" : reported protein stability index = 0.625

Record summary for "GVGCVGWGSSCA" : reported protein stability index = 0.673

Record summary for "PPSLPRFTPRPA" : reported protein stability index = 0.718

Record summary for "PPPRPPSPPSFL" : reported protein stability index = 0.734

Record summary for "VRLLLIFRLLVI" : reported protein stability index = 0.299

Record summary for "PPPFPPAPRHPP" : reported protein stability index = 0.614

Record summary for "PSRSLSSPPSSR" : reported protein stability index = 0.64

Record summary for "EPNKGTNMKVND" : reported protein stability index = 0.705
